Below, each of the molecules is paired with its reported log10 of solubility kinetic value.
Conditions: buffer; pH 7.4; 200.0 µM
Values are log10 of solubility kinetic in µg/mL.

Below are worked cases with known answers.
INSERT INTO assay_data (molecule, measured) VALUES
  ('S=C1NC2(CCCC2)Nc2ccccc21', 1.51),
  ('CC(O)c1cccc(N=Cc2ccc3ccccc3c2O)c1 (stereo not given)', 0.88);

Report log10 of solubility kinetic for Cc1ccccc1OCCC(=O)Nc1ccccc1C(=O)N1CCCCC1 please.
1.72

Report log10 of solubility kinetic for CC(C)(CNC(=O)c1ccc(Br)o1)N1CCOCC1 please.
1.63

Report log10 of solubility kinetic for CN(C)S(=O)(=O)c1cccc(NC(=O)c2ccc(N3CCCC3=O)cc2)c1 please.
0.76

Report log10 of solubility kinetic for Cc1ccc(C)n1Cc1ccccc1Cl please.
0.08

Report log10 of solubility kinetic for Cc1ccc(N=C2NC(=O)/C(=C/c3cccn3C)S2)cc1C please.
-0.05

Report log10 of solubility kinetic for O=C(c1ccc(Br)o1)N1CC=C(c2ccccc2)CC1 please.
1.52

Report log10 of solubility kinetic for Cc1cc(C)c(S(=O)(=O)NCc2cccs2)cc1C please.
1.56

* * *

Conditions: buffer; pH 7.4; 200.0 µM
parameter-measured: solubility kinetic

Below are worked cases with known answers.
INSERT INTO measurements (compound, parameter_measured, measured) VALUES
  ('Cc1ccc(NC(=O)CC2CCCC2)c(Br)c1', 'solubility kinetic', '2.4 µg/mL'),
  ('O=c1[nH]c(=O)n(C2CCCO2)cc1F (centres undefined)', 'solubility kinetic', '29.9 µg/mL');

Report solubility kinetic for CCc1ccc(C(=O)CSc2nc(N)cc(=O)[nH]2)cc1 please.
14.2 µg/mL

Report solubility kinetic for COc1cccc(C(=O)OCC(=O)Nc2cc(C)on2)c1OC please.
> 48 µg/mL

* * *

Conditions: buffer; pH 7.4; 200.0 µM
Below, each of the compounds is paired with its reported solubility kinetic value.
// note: answer is a bare numeric in µg/mL

Report solubility kinetic for CC(C(=O)Nc1ccc(S(=O)(=O)N2CCCC2)cc1)N1CCN(c2ccccc2O)CC1 (stereo unspecified) please.
12.6

Report solubility kinetic for O=C(Nc1ccc(Cl)cn1)c1ccc2nccnc2c1 please.
3.6

Report solubility kinetic for CC1CCC(NC(=O)C(=O)Nc2ccc3c(c2)OCO3)CC1 (stereo unspecified) please.
0.5

* * *

Below, each of the molecules is paired with its reported solubility kinetic value.
Conditions: buffer; pH 7.4; 200.0 µM

Below are worked cases with known answers.
INSERT INTO results (molecule, measured) VALUES
  ('O=C(NCCN1CCNCC1)c1ccccc1O', '> 37.4 µg/mL'),
  ('CC(Nc1ccccc1)c1ccncc1 (stereo unspecified)', '> 29.7 µg/mL'),
  ('Cc1ccnc(NC(=O)CNC(=O)c2ccccc2)c1', '> 40.4 µg/mL'),
  ('Cc1cc(C)cc(NS(=O)(=O)c2cccs2)c1', '> 40.1 µg/mL'),
  ('COc1ccc(CC(=O)OCC(=O)N2CCCC(C)C2)cc1 (stereo unspecified)', '> 45.8 µg/mL');

Report solubility kinetic for O=C(NCCCN1CCOCC1)c1cc2ccccc2cc1O please.
> 47.2 µg/mL

* * *

Details: buffer; pH 7.4; 200.0 µM
Below, each of the compounds is paired with its reported solubility kinetic value.

Below are worked cases with known answers.
INSERT INTO results (compound, measured) VALUES
  ('CCNC(=O)CCc1nc(-c2ccc(C)cc2)no1', '> 38.9 µg/mL'),
  ('CCOC(=O)C1Nc2ccc(C(=O)O)cc2C2C=CCC12 (stereo not drawn)', '> 43.1 µg/mL');

Report solubility kinetic for O=C1c2ccccc2C(=O)N1CCn1ccnc1 please.
> 36.2 µg/mL

Report solubility kinetic for CC(C)Oc1ccc(CCN=C(N)N=C(N)N)cc1Cl.Cl please.
> 50.1 µg/mL

Report solubility kinetic for COc1ccc(C(=O)NCCc2ccc(F)cc2)cc1OC please.
> 45.5 µg/mL

Report solubility kinetic for CC(C)Oc1ccccc1C1(c2ccccc2)NC(=O)NC1=O (stereo not drawn) please.
> 46.6 µg/mL

Report solubility kinetic for CCN(CC)c1ccc(C=Nc2cccnc2Cl)c(O)c1 please.
33.3 µg/mL

Report solubility kinetic for COc1ccc(S(=O)(=O)NCc2cccnc2)cc1Br please.
35.5 µg/mL

* * *

Conditions: buffer; pH 7.4; 200.0 µM
Below, each of the compounds is paired with its reported solubility kinetic value.

Below are worked cases with known answers.
INSERT INTO measurements (compound, parameter_measured, measured) VALUES
  ('Cc1ccccc1NC(=O)C(C)N1C(=O)c2ccccc2C1=O (stereo unspecified)', 'solubility kinetic', '> 46.3 µg/mL'),
  ('COc1cc(OC)nc(/N=C/N(C)C)n1', 'solubility kinetic', '> 31.5 µg/mL'),
  ('O=C(COC(=O)CCC(=O)c1cccs1)NCCc1ccccc1', 'solubility kinetic', '> 51.8 µg/mL'),
  ('O=C1CCCN1CCCNS(=O)(=O)c1cccc(F)c1', 'solubility kinetic', '> 45.1 µg/mL'),
  ('Cc1ccc(/C=C2\C(=O)NC(=O)N(CC3CCCO3)C2=O)s1 (stereo unspecified)', 'solubility kinetic', '> 48.1 µg/mL');

Report solubility kinetic for O=C(CCN1C(=O)c2ccccc2C1=O)Nc1cccc(O)c1 please.
> 46.5 µg/mL

Report solubility kinetic for Cc1ccccc1-c1nnc(SC(C)C(=O)NC2CCCC2)o1 (stereo unspecified) please.
> 49.7 µg/mL

Report solubility kinetic for COc1ccc(NS(=O)(=O)c2ccc(O)c(NS(=O)(=O)c3ccc(NC(C)=O)cc3)c2)cc1 please.
> 73.7 µg/mL

Report solubility kinetic for CN(n1cnc2ccccc2c1=O)S(C)(=O)=O please.
> 38 µg/mL

Report solubility kinetic for CSc1cccc(CN2CCC(CCC(=O)NC3CC3)CC2)c1 please.
> 49.9 µg/mL

Report solubility kinetic for O=C(COC(=O)Cc1ccc(S(=O)(=O)N2CCOCC2)s1)Nc1ccc(F)cc1F please.
> 69.1 µg/mL

* * *

Details: buffer; pH 7.4; 200.0 µM
parameter-measured: log10(solubility kinetic) (log10 of the value in µg/mL)
Values are log10 of solubility kinetic in µg/mL.

INSERT INTO results (compound, parameter_measured, measured) VALUES
  ('Cc1nonc1NC(=O)c1oc2ccc(F)cc2c1C', 'log10(solubility kinetic)', -0.15),
  ('CCOC(=O)c1c(C)[nH]c(C(=O)OCc2ccc(F)cc2)c1C', 'log10(solubility kinetic)', 0.30),
  ('C[C@H](NS(=O)(=O)c1ccccc1)C(=O)N1CCN(C(c2ccccc2)c2ccccc2)CC1', 'log10(solubility kinetic)', 1.21),
  ('CC(=O)N(C)c1ccc(NC(=O)Nc2cccc3ccccc23)cc1', 'log10(solubility kinetic)', 0.11),
  ('CCC(=O)c1ccc(OCC(=O)Nc2ccc3c(c2)OCCO3)cc1', 'log10(solubility kinetic)', 1.09);

Report log10(solubility kinetic) for CC(CNC(=O)c1ccc2c(c1)OCO2)c1ccc([N+](=O)[O-])cc1 (stereo not given) please.
0.30

* * *

Settings: buffer; pH 7.4; 200.0 µM
parameter-measured: solubility kinetic

Below are worked cases with known answers.
INSERT INTO measurements (molecule, parameter_measured, measured) VALUES
  ('CC(C)(C)OC(=O)N1CCN(C(=O)c2cccnc2Cl)CC1', 'solubility kinetic', '> 48.9 µg/mL'),
  ('O=C(Nc1ncccc1O)c1ccc2ccccc2c1', 'solubility kinetic', '> 39.6 µg/mL'),
  ('CCOC(=O)c1cnc2c(ccc3ccccc32)c1Cl', 'solubility kinetic', '< 0.6 µg/mL');

Report solubility kinetic for CC12CC3CC(C)(C1)CC(C(O)CN1CCOCC1)(C3)C2.Cl (configuration not stated) please.
> 49.5 µg/mL

Report solubility kinetic for Cc1nc(S(=O)(=O)Nc2ccccc2C(=O)NCC2CC2)cn1C please.
> 52.3 µg/mL

Report solubility kinetic for O=C(C[n+]1ccc(/C=N/O)cc1)N1CCCCC1.[Cl-] please.
> 42.6 µg/mL

Report solubility kinetic for COc1cccc2[nH]c3c(=O)[nH]cnc3c12 please.
> 32.3 µg/mL

* * *

Conditions: buffer; pH 7.4; 200.0 µM
parameter-measured: solubility kinetic

Report solubility kinetic for O=C(c1ccc([N+](=O)[O-])cc1)N(c1ccccn1)c1ccccn1 please.
> 48 µg/mL

Report solubility kinetic for Cc1cc(NCc2ccccc2)c2ccccc2n1.Cl please.
> 42.7 µg/mL

* * *

Details: buffer; pH 7.4; 200.0 µM
parameter-measured: solubility kinetic

Below are worked cases with known answers.
INSERT INTO measurements (compound, measured) VALUES
  ('CCN(C(=O)c1ccc2c(c1)OCO2)C1CCS(=O)(=O)C1 (configuration not stated)', '> 46.7 µg/mL'),
  ('O=c1c2ccccc2n(CC(O)CN2CCCCC2)c2ccccc12 (configuration not stated)', '> 50.5 µg/mL'),
  ('N#CC(c1cccnc1)N1CCOCC1 (configuration not stated)', '> 30.5 µg/mL'),
  ('O=C(CS(=O)(=O)c1c[nH]c2ccccc12)N1CCCCCC1', '> 48.1 µg/mL');

Report solubility kinetic for Cn1c(SCc2ccc(F)cc2)nnc1-c1ccncc1 please.
> 45.1 µg/mL

Report solubility kinetic for CCn1c(SCC(=O)NC2CCCC2)nnc1-c1ccco1 please.
> 48.1 µg/mL

Report solubility kinetic for Cl.OC(c1ccccc1)C(CN1CCOCC1)c1ccccc1 (configuration not stated) please.
> 50.1 µg/mL

Report solubility kinetic for O=C(CCC(=O)c1ccccc1)Nc1ccccc1OC(F)F please.
> 47.9 µg/mL
